- Experimental Target: Signal transducer and activator of transcription 3 (Homo sapiens)
- Protocol Description: Inhibition of IFNgamma-stimulated STAT3 activation in human HeLa cells incubated with IFNgamma for 16 hrs followed by compound addition measured after 24 hrs by luciferase reporter gene assay
- Format: cell-based
pEC50: −log10 of the molar value.
Measure Name: pEC50

Recorded pEC50, per entry:
CC(C)(C)[Si](C)(C)OC[C@]1(C)C(=O)CC[C@@]2(C)[C@H](C/C=C3/C(=O)OC[C@H]3O[Si](C)(C)C(C)(C)C)[C@]3(CC[C@@H]21)CO3 | < 5.00
C=C1CC[C@H]2[C@@](C)(CCC(=O)[C@@]2(C)CO[Si](C)(C)C(C)(C)C)[C@@H]1C/C=C1/C(=O)OC[C@@H]1OC(C)=O | 5.03
C=C1CC[C@H]2[C@@](C)(CCC(=O)[C@@]2(C)CO)[C@@H]1C/C=C1/C(=O)OC[C@H]1OC(C)=O | < 5.00
C=C1CC[C@@H]2[C@](C)(CO[Si](C)(C)C(C)(C)C)[C@H](O)CC[C@@]2(C)[C@@H]1C/C=C1/C(=O)OC[C@H]1OC(C)=O | 5.36
CC(=O)OC[C@]1(C)C(=O)CC[C@@]2(C)[C@H](C/C=C3/C(=O)OC[C@@H]3O[Si](C)(C)C(C)(C)C)[C@@]3(CC[C@@H]21)CO3 | < 5.00

Turning now to a further compound:
// query Form field - read-out: pEC50; system: Signal transducer and activator of transcription 3 (Homo sapiens); submitted item: CC(=O)OC[C@]1(C)C(=O)CC[C@@]2(C)[C@H](C/C=C3/C(=O)OC[C@H]3O[Si](C)(C)C(C)(C)C)[C@@]3(CC[C@@H]21)CO3
// result < 5.00

---

- Experimental Target: UniProtKB P40763
- Protocol Description: Inhibition of […] activation in human HeLa cells incubated […] for 16 hrs followed by compound addition measured after 4 hrs by luciferase reporter gene assay
- Format: cell-based
Recorded measurements of EC50, one per entry
# number only, unit µM dropped from output

CC(=O)O[C@@H]1COC(=O)/C1=C/C[C@@H]1[C@@]2(CC[C@@H]3[C@](C)(CO)[C@H](O)CC[C@]31C)CO2 | 7.54

// query // lookup EC50 for CC(=O)OC[C@]1(C)C(=O)CC[C@@]2(C)[C@H](C/C=C3/C(=O)OC[C@@H]3O[Si](C)(C)C(C)(C)C)[C@]3(CC[C@@H]21)CO3
// result 9.91

---

Recorded measurements of EC50, one per entry
- Experimental Target: Signal transducer and activator of transcription 3 (Homo sapiens, UniProt P40763)
- Sequence (P40763 whole entry): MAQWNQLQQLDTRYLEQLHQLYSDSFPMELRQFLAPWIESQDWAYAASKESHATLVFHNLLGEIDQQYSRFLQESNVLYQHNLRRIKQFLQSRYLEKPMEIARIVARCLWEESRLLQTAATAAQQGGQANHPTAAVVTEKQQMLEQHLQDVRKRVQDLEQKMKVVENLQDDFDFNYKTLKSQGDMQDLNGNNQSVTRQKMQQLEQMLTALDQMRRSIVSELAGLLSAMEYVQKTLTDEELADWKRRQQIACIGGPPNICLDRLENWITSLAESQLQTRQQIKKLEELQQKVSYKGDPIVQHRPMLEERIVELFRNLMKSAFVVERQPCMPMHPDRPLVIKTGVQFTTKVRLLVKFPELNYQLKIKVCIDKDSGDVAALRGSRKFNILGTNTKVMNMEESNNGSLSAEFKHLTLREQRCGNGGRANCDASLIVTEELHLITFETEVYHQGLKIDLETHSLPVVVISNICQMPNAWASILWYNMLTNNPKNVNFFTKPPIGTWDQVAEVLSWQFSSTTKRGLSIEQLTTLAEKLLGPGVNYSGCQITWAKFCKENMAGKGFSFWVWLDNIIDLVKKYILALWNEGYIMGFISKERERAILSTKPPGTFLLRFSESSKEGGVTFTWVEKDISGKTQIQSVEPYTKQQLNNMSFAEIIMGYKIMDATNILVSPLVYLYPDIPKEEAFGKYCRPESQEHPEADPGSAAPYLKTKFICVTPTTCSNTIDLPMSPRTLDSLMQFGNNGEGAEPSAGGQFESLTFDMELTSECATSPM
- Protocol Description: Inhibition of IFNgamma-stimulated STAT3 activation in human AD293 cells incubated with IFNgamma for 16 hrs followed by compound addition measured after 24 hrs by luciferase reporter gene assay
- Assay type: cell-based
# number only, unit µM dropped from output

Recorded EC50, per entry:
CC(=O)O[C@@H]1COC(=O)/C1=C/C[C@@H]1[C@]2(CC[C@@H]3[C@](C)(CO)[C@H](O)CC[C@]31C)CO2 | 5.11
CC(C)(C)[Si](C)(C)O[C@@H]1COC(=O)/C1=C/C[C@@H]1[C@]2(CC[C@@H]3[C@](C)(CO)[C@H](O)CC[C@]31C)CO2 | 3.45

Turning now to a further compound:
// query // lookup EC50 for C=C1CC[C@H]2[C@@](C)(CCC(=O)[C@@]2(C)CO)[C@@H]1C/C=C1/C(=O)OC[C@H]1OC(C)=O
// result 7.93

---

- Experimental Target: Signal transducer and activator of transcription 3 (Homo sapiens, UniProt P40763)
- Protocol Description: Inhibition of IFNgamma-stimulated STAT3 phosphorylation at Tyr705 residues in human AD293 cell lysates incubated with IFNgamma followed by compound addition at 10 uM by Western blot analysis
The source made the active and inactive calls. No cut-off for these calls is given here.
Measure Name: inhibition

C=C1CC[C@@H]2[C@](C)(CO[Si](C)(C)C(C)(C)C)[C@H](OC(C)=O)CC[C@@]2(C)[C@@H]1C/C=C1/C(=O)OC[C@H]1OC(C)=O | inactive
CC(C)(C)[Si](C)(C)O[C@@H]1CC[C@]2(C)[C@H](CC[C@]3(CO3)[C@H]2C/C=C2/C(=O)OC[C@H]2O)[C@]1(C)CO | inactive
CC(C)(C)[Si](C)(C)O[C@@H]1COC(=O)/C1=C/C[C@@H]1[C@]2(CC[C@H]3[C@@]1(C)CCC(=O)[C@@]3(C)CO)CO2 | > 50%

---

- Experimental Target: Signal transducer and activator of transcription 3 (Homo sapiens, UniProt P40763)
- Protocol Description: Inhibition of IFNgamma-stimulated STAT3 activation in human AD293 cells incubated with IFNgamma for 16 hrs followed by compound addition measured after 24 hrs by luciferase reporter gene assay
- Type: cell-based
Measure Name: EC50 (µM)
# number only, unit µM dropped from output

CC(=O)OC[C@]1(C)C(=O)CC[C@@]2(C)[C@H](C/C=C3/C(=O)OC[C@H]3O[Si](C)(C)C(C)(C)C)[C@]3(CC[C@@H]21)CO3 | 5.38

// query // lookup EC50 for C=C1CC[C@H]2[C@@](C)(CCC(=O)[C@@]2(C)CO[Si](C)(C)C(C)(C)C)[C@@H]1C/C=C1/C(=O)OC[C@@H]1O
// result 4.72

// query // lookup EC50 for C=C1CC[C@@H]2[C@](C)(CO[Si](C)(C)C(C)(C)C)[C@H](O)CC[C@@]2(C)[C@@H]1C/C=C1/C(=O)OC[C@H]1OC(C)=O
// result 1.18

---

Recorded measurements of log10 EC50, one per entry
- Experimental Target: UniProt:P40763
- Protocol Description: Inhibition of IL-6 stimulated STAT3 activation in human AD293 cells incubated with IL-6 for 16 hrs followed by compound addition measured after 6 hrs by luciferase reporter gene assay
- Assay type: cell-based
Field: value | Transform: log10 | Quantity: EC50 | Unit: µM

CC(C)(C)[Si](C)(C)O[C@@H]1COC(=O)/C1=C/C[C@@H]1[C@]2(CC[C@H]3[C@@]1(C)CCC(=O)[C@@]3(C)CO)CO2 | 0.60
C=C1CC[C@@H]2[C@](C)(CO[Si](C)(C)C(C)(C)C)[C@H](O)CC[C@@]2(C)[C@@H]1C/C=C1/C(=O)OC[C@@H]1OC(C)=O | 0.51
CC(=O)O[C@@H]1COC(=O)/C1=C/C[C@@H]1[C@]2(CC[C@@H]3[C@](C)(CO)[C@H](O)CC[C@]31C)CO2 | 0.49

Turning now to a further compound:
// query // lookup log10 EC50 for C=C1CC[C@@H]2[C@](C)(CO[Si](C)(C)C(C)(C)C)[C@H](O)CC[C@@]2(C)[C@@H]1C/C=C1/C(=O)OC[C@H]1OC(C)=O
// result 0.34

---

- Experimental Target: Signal transducer and activator of transcription 3 (Homo sapiens)
- Protocol Description: Inhibition of […] activation in human AD293 cells incubated […] for 16 hrs followed by compound addition measured after 4 hrs by luciferase reporter gene assay
- Type: cell-based
pEC50: −log10 of the molar value.
Measure Name: pEC50

// query // lookup pEC50 for C=C1CC[C@@H]2[C@](C)(COC(C)=O)[C@H](OC(C)=O)CC[C@@]2(C)[C@@H]1C/C=C1/C(=O)OC[C@H]1O[Si](C)(C)C(C)(C)C
// result < 5.00

// query // lookup pEC50 for CC(=O)OC[C@]1(C)C(=O)CC[C@@]2(C)[C@H](C/C=C3/C(=O)OC[C@H]3O[Si](C)(C)C(C)(C)C)[C@]3(CC[C@@H]21)CO3
// result < 5.00

// query // lookup pEC50 for C=C1CC[C@H]2[C@@](C)(CCC(=O)[C@@]2(C)CO)[C@@H]1C/C=C1/C(=O)OC[C@@H]1O[Si](C)(C)C(C)(C)C
// result < 5.00

// query // lookup pEC50 for C=C1CC[C@H]2[C@@](C)(CCC(=O)[C@@]2(C)CO)[C@@H]1C/C=C1/C(=O)OC[C@H]1O[Si](C)(C)C(C)(C)C
// result < 5.00

// query // lookup pEC50 for CC(=O)O[C@@H]1COC(=O)/C1=C/C[C@@H]1[C@@]2(CC[C@@H]3[C@](C)(CO)[C@H](O)CC[C@]31C)CO2
// result 5.07

---

- System: HeLa
- Protocol Description: Cytotoxicity against human HeLa cells
- Type: cell-based
Recorded measurements of CC10, one per entry

Recorded CC10, per entry:
CC(=O)OC[C@]1(C)C(=O)CC[C@@]2(C)[C@H](C/C=C3/C(=O)OC[C@H]3O[Si](C)(C)C(C)(C)C)[C@]3(CC[C@@H]21)CO3 | > 10 µM
C=C1CC[C@@H]2[C@](C)(CO)[C@H](O)CC[C@@]2(C)[C@@H]1C/C=C1/C(=O)OC[C@H]1O[Si](C)(C)C(C)(C)C | > 10 µM

Turning now to a further compound:
// query // lookup CC10 for C=C1CC[C@H]2[C@@](C)(CCC(=O)[C@@]2(C)CO[Si](C)(C)C(C)(C)C)[C@@H]1C/C=C1/C(=O)OC[C@H]1O
// result > 10 µM
